System: L1210 leukemia ip in BDF1 mice, survival T/C
Experiment: NCI In Vivo Anticancer Drug Screen. Data for tumor model L1210 Leukemia (intraperitoneal) in B6D2F1 (BDF1) mice
Settings: endpoint: mean survival time; dose: 100.0 mg/kg/injection; schedule: Q01DX009 (ip); vehicle: Klucel (hydroxypropylcellulose) (HPC); higher = longer survival
Experimental: The antitumor activity of compounds was measured in mice bearing transplantable tumors. Survival or tumor size were measured and the results are expressed as the measurement made in the treated group (T) divided by the measurement made in the vehicle treated control group (C). The tumor model used in this assay is L1210 Leukemia (intraperitoneal) in B6D2F1 (BDF1) mice
Toxic doses and inconclusive results are not listed.
Assignment: determine reported T/C for the given compounds.

What measured T/C is associated with O=C(/C=C/c1ccccc1[N+](=O)[O-])c1ccccc1 on L1210 leukemia ip in BDF1 mice, survival T/C?
97 % of control

Entry CC(=O)Nc1ccc2c([N+](=O)[O-])cccc2c1-c1c(NC(C)=O)ccc2c([N+](=O)[O-])cccc12 , system L1210 leukemia ip in BDF1 mice, survival T/C: what T/C was measured?
101 % of control

Could you share what T/C was measured for CCCCCCCCCCCC(=O)c1ccccc1 , tested on L1210 leukemia ip in BDF1 mice, survival T/C?
86 % of control

Write down the reported T/C of COc1ccc(Cl)cc1NC(=O)c1ccccc1Cl , test system: L1210 leukemia ip in BDF1 mice, survival T/C.
95 % of control

Field: T/C (L1210 leukemia ip in BDF1 mice, survival T/C). Entry: O=C(O)CCC(NC(=O)OCc1ccccc1)C(=O)OCc1ccccc1 (stereo unspecified)
103 % of control

Lab note: need T/C for CN/N=C1\CCC2C3CCc4cc(O)ccc4C3CCC12C (stereo unspecified) on L1210 leukemia ip in BDF1 mice, survival T/C, anyone have it?
95 % of control

Provide the documented T/C with L1210 leukemia ip in BDF1 mice, survival T/C as the system for COc1ccc2c(c1)c(=O)c(C(=O)O)cn2CCCOc1ccc([N+](=O)[O-])cc1
96 % of control

Which measured T/C belongs to CCN(Cc1ccccc1)C(=O)Nc1ccc(OC)cc1 , tested on L1210 leukemia ip in BDF1 mice, survival T/C?
103 % of control

Recorded T/C for NNC(=O)c1ccccc1Nc1ccc(Br)cc1 with L1210 leukemia ip in BDF1 mice, survival T/C, please?
94 % of control

For the record NNC(=O)c1ccc(NC(=S)Nc2ccccc2)cc1 , what value of T/C is listed for L1210 leukemia ip in BDF1 mice, survival T/C?
93 % of control

Query the reported T/C for L1210 leukemia ip in BDF1 mice, survival T/C; item: Nc1nc(N)c(CCCCc2ccccc2)c(-c2ccccc2)n1
95 % of control

Sourced from PubChem BioAssay AID248
